B1: Homeobox protein cut-like 1, residues 941 to 1008; numbered along this chain, P39880 (parent)
chain: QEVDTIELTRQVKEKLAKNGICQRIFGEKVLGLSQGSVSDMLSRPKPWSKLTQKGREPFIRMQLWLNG

Variants of: B1
test: abundance fitness (aPCA) (normalised: wild type 0, dead -1); higher = more abundant; growth selection in yeast, the domain comes from the species named
protocolConditions: Homo sapiens
Measured abundance fitness, listed per entry.
Respond numerically, and do not add a unit to the figure.

Below: 5 variants and their reported abundance fitness.
residuechange=V12E parameter="abundance fitness" recordedmeasurement=-0.113
residuechange=L8F parameter="abundance fitness" recordedmeasurement=-0.152
residuechange=M41T parameter="abundance fitness" recordedmeasurement=-0.107
residuechange=T5N parameter="abundance fitness" recordedmeasurement=-0.223
residuechange=P47N parameter="abundance fitness" recordedmeasurement=-0.371

**Query** Give its abundance fitness value. Item: `T9E`
**Result** -0.191

**Query** Follow-up item: `R10N`
**Result** 0.036
